src = ChEMBL document CHEMBL1201862

test system: ACHN; assay: NCI tumour cell line growth inhibition, 48 h
Calls of active or inactive are those of the source. Cut-off read from the data, not from the text of the source: active = GI50 up to about 1.1 µM and inactive = higher.
Hi there, I'd appreciate the recorded GI50 for every entry that follows.

Recorded GI50, per entry:
CC(=O)OC[C@@]12CC[C@H]3C(C)(C)CCC[C@]3(C)[C@H]1C[C@@H](C1=CC(=O)O[C@H]1O)O2 :: 2.54 µM (inactive)
O=c1[nH]nc(N/N=C\c2ccc(Cl)cc2)c2ccccc12 :: 21.4 µM (inactive)
COc1ccc(C2C=C(c3ccc4c(c3)OCO4)Oc3c2c(=O)oc2ccccc32)cc1OC (stereo unspecified) :: 0.627 µM (active)
Cc1nc(O)c2c3c(sc2n1)CCCC3 :: 54.5 µM (inactive)
CCOC(=O)C(C(C)=O)C1CC=CC1 (stereo unspecified) :: > 100 µM (inactive)

Lab note: each compound below needs its GI50 filled in.
1. CCC(=O)N(c1ccccc1)C(C)CN1CCC(O)(c2ccccc2)CC1 (stereo unspecified)
2. O=c1/c(=C/c2ccc([N+](=O)[O-])o2)sc2n1[C@@H](c1ccc(Cl)cc1)C=C(c1cc(F)c(Cl)cc1Cl)N=2
3. N#C/C(C(=O)Nc1ccc(Cl)cc1)=C(/N)N1CCCCC1
4. COc1ccc(/C=C(\Cl)c2ccc(OC)c(OC)c2)cc1OC
5. CCOc1cc(/C=C2\N=C(c3ccccc3)N(c3nc4ccccc4s3)C2=O)ccc1O

1. > 100 µM (inactive)
2. 16.3 µM (inactive)
3. > 100 µM (inactive)
4. > 100 µM (inactive)
5. 37.3 µM (inactive)

Fill in the blank: the reported GI50 of O=C1Nc2ccc(Cl)c(I)c2C1=O is ____.
16.7 µM (inactive)

====

Please provide measured GI50 for the entries that follow.
test system: SNB-19; assay: NCI tumour cell line growth inhibition, 48 h
The source made the active and inactive calls. Rule as the data show it: active = GI50 up to about 1.1 µM and inactive = higher.

Please give GI50, item by item, for the list that follows.
1. O=C1C2=C(c3ccccc31)C(c1ccccc1)N1C(=O)CSC1=N2 (stereo not given)
2. Cn1c(COC(=O)NC2CCCCC2)c(COC(=O)NC2CCCCC2)c2ccc3cc(C=O)ccc3c21
3. CCc1c(C#N)c(=O)[nH]c(=O)n1CCN1CCN(C(=O)NCCCCCCNC(=O)N2CCN(CCn3c(CC)c(C#N)c(=O)[nH]c3=O)CC2)CC1
4. Cc1c(C(=O)C/C(=N/NC(=O)C[N+](C)(C)C)C(=O)Nc2ccc(Cl)cc2)[n+]([O-])c2ccccc2[n+]1[O-]
5. Cn1c(=O)c2c(n(C)c1=O)n1c(=O)c3ccccc3nc1n2C

["55.7 µM (inactive)", "> 100 µM (inactive)", "> 100 µM (inactive)", "> 100 µM (inactive)", "> 100 µM (inactive)"]

====

Please provide measured GI50 for the entries that follow.
tested on: DLD-1; experiment: NCI tumour cell line growth inhibition, 48 h
Activity calls are given as the source filed them. No stated cut-off is given here; in the data, active = GI50 up to about 1.1 µM and inactive = higher.

# count of solved cases: 8
O=S1(=O)c2cc(S(=O)(=O)n3ccnc3)ccc2NC2=NCCCN21 :: 28.1 µM (inactive)
CCN(CC)CCSc1c2ccccc2nc2c(OC)ccc(OC)c12 :: 1.99 µM (inactive)
Cc1ccccc1C(C#N)C(=O)C(=O)Nc1nc([N+](=O)[O-])cs1 (stereo not given) :: > 100 µM (inactive)
COC(=O)CCC12CCC(=O)C1[C@@H](C(=O)OC)C[C@H]2C(=O)OC (stereo not given in full) :: > 100 µM (inactive)
N#CC(C#N)=C(C(C#N)C#N)C(C#N)C#N :: > 100 µM (inactive)
O=C(Nc1ccccc1)OCc1nc2c([nH]1)C(=O)C=CC2=O :: > 100 µM (inactive)
O=c1[nH]c(=O)n(C2OC(COP(=O)(O)OP(=O)(O)OC3OC(CO)C(O)C(O)C3O)C(O)C2O)cc1F (stereo not given) :: < 0.0119 µM (active)
COc1ccccc1-c1cc(=O)c2cc(C)c(C)c(C(=O)O)c2o1 :: > 100 µM (inactive)

Hey, can you go through the list below and give me GI50 for every item?
1. Cc1cc(Cl)ccc1NC(=O)C(=O)C(C(=O)c1ccc2ccccc2c1)C1OC(=O)c2ccccc21 (stereo not given)
2. CCCc1c[nH]c(-c2ccc(-c3cc(CCC)c(C=O)[nH]3)s2)c1

1: 14.3 µM (inactive); 2: 15 µM (inactive)
